The reported numbers originate from PubChem BioAssay.

Experiment: TLR3 IRF3 reporter activation blockers – cell-based, poly I:C stimulus, luciferase, 10K MLSCN set, primary screen (AID 602277)
Settings: HEK293-TLR3 RL24 IRF3 luciferase reporter, at 10 µM, stronger effect = higher value
property: inhibition (%)
Return type: number; implicit unit %.

[[record]]
compound = "COc1ccccc1C1CC(c2ccc(C)cc2)Nc2ncnn21 (centres undefined)"
observed_measurement = -0.278

[[record]]
compound = "Nc1ncnc2nc(Sc3ccc(Cl)cc3)[nH]c12"
observed_measurement = 12.5

[[record]]
compound = "Cc1cc(Oc2ccccc2)nc(-c2ccccc2)n1"
observed_measurement = -47.5

[[record]]
compound = "CCOC(=O)c1ccc(NS(=O)(=O)c2ccc3c(c2)oc(=O)n3C)cc1"
observed_measurement = 14

[[record]]
compound = "O=C(c1ncn[nH]1)N1CCN(c2nc(-c3ccccc3)cs2)CC1"
observed_measurement = -36.8


Measured inhibition of C/C=C(\C)c1nnc(NC(=O)OCC)s1 : -51.1

Measured inhibition of O=C(O)CN1C(=O)C2(OCCCO2)c2ccccc21 : 18.6

Measured inhibition of CSc1oc(-c2ccccc2)nc1S(=O)(=O)c1ccc(F)cc1 : 22.3

Measured inhibition of CC1CCCCN1S(=O)(=O)c1ccc(NC(=O)c2cccs2)cc1 (centres undefined) : 5.71

Measured inhibition of NC(=O)COC(=O)CNC(=O)c1ccc(Cl)cc1 : 17.3

Measured inhibition of CCOC(=O)N1CCN(c2c(N3CCN(c4ccccn4)CC3)c(=O)c2=O)CC1 : 16.3

Measured inhibition of CCOC(=O)c1c(NC(=O)c2ccn(CC)n2)sc2c1CCCC2 : -1.94

Measured inhibition of Cc1ccc2nc(NC(=O)C3CCCN(S(=O)(=O)c4cccc5nonc45)C3)sc2c1 (centres undefined) : -5.96

Measured inhibition of Cc1ccc(OCCC(=O)OCC(=O)C(C)(C)C)cc1 : 27.5

Measured inhibition of COc1ccc(OC)c(S(=O)(=O)N2CCN(c3c(C)cccc3C)CC2)c1 : 30.5

====

Examples of compounds with documented inhibition follow.
Assay: TLR3 IRF3 reporter activation blockers – cell-based, poly I:C stimulus, luciferase, 10K MLSCN set, primary screen (AID 602277)
Settings: HEK293-TLR3 RL24 IRF3 luciferase reporter, at 10 µM, stronger effect = higher value
Return type: number; implicit unit %.

In the examples that follow, each entry is paired with its recorded inhibition.
[[record]]
compound = "O=C(CSc1nnc(COc2ccc(Cl)cc2)o1)OC1CCCCC1"
property = "inhibition"
observed_measurement = -1.92

[[record]]
compound = "COc1cccc(C2=Nn3c(nnc3-c3ccccc3O)SC2)c1"
property = "inhibition"
observed_measurement = 19.2

[[record]]
compound = "CC(Sc1nc(-c2ccccc2)cc(C(F)(F)F)n1)C(=O)N1CCCC1 (centres undefined)"
property = "inhibition"
observed_measurement = 16.9


Okay, next one:
Measured inhibition of Cc1cccc2cc(COC(=O)C(C)(C)C)c(=O)[nH]c12 : 22.5

====

Experiment: inhibitors of TNFa-induced NFkB p65 translocation, primary screen, imaging, HUVEC, MLSMR starter and 10KST1 sets (AID 438);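 note: compound added about 3h40 before a 20 min TNFalpha stimulation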
Conditions: HUVEC TNFa-induced p65 nuclear translocation; measured here: nuclei count (cytotoxicity indicator), at 2.08 µM
property: cell count
Answer with the value's number alone.

In the examples that follow, each entry is paired with its recorded cell count.
[[record]]
compound = "CCn1c(SCC(=O)Nc2cccc(C)c2)nc2c(c1=O)SC(C)C2 (centres undefined)"
property = "cell count"
observed_measurement = 576

[[record]]
compound = "O=C(NC1=NCCS1)c1nc(-c2ccccc2)n(-c2ccccc2)n1"
property = "cell count"
observed_measurement = 495

[[record]]
compound = "Cc1ccc(-c2noc(COc3ccccc3C)n2)cc1"
property = "cell count"
observed_measurement = 607


Okay, next one:
Measured cell count of COc1ccc(N2CCN(C(c3cccs3)c3nnnn3C3CCCC3)CC2)cc1 (centres undefined) : 219

====

Assay: inhibitors of TNFa-induced NFkB p65 translocation, primary screen, imaging, HUVEC, MLSMR starter and 10KST1 sets (AID 438);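 note: compound added about 3h40 before a 20 min TNFalpha stimulation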
Details: HUVEC TNFa-induced p65 nuclear translocation; measured here: nuclei count (cytotoxicity indicator), at 2.08 µM
Label class 1 when cell count >= 400; otherwise class 0.

The examples below pair each entry with its known result.
[[record]]
molecule = "Cc1cc(-c2ccccc2)c(C#N)c(N)n1"
label = "class 0"

[[record]]
molecule = "CCOC(=O)C1=C(NC#N)OC(C)=C(C)C1c1ccc(O)cc1 (stereo not given)"
label = "class 0"

[[record]]
molecule = "Cc1ccc2c(c1)N(CC(=O)Nc1ccc3c(c1)OCCO3)C(=O)CO2"
label = "class 0"


# input for lookup
Query :: Given CC(C)c1nccn1S(=O)(=O)c1cc(Cl)ccc1Cl , state whether its cell count is at least 400.
Result :: class 1

====

Molecular target: Voltage-gated potassium channel subunit beta-2 (Rattus norvegicus)
Assay: inhibitors of rat Kvbeta2 reductase activity – biochemical, NADPH fluorescence, primary screen (AID 622);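 note: slope of raw intensity against log time taken from 70 to 1610 s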
Details: recombinant KvBeta, 4-cyanobenzaldehyde reduction, at 10 µM, stronger effect = higher value
Calls of active or inactive are those of the source.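 Rule for the calls: active = fluorescence slope higher than the sample average by over 3 SD (cut at about -0.22 in these data, passing the limit was not always enough); inactive = the rest.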
property: fluorescence slope

[[record]]
molecule = "CCc1cc2c(=O)n(C(C)C(=O)OC3CCCCC3)cnc2s1 (stereo not drawn)"
measured_target = "Voltage-gated potassium channel subunit beta-2 (Rattus norvegicus)"
property = "fluorescence slope"
observed_measurement = "-0.486 (inactive)"


Measured fluorescence slope of O=C1C(Cl)=C(N2CCCCC2)C(=O)N1c1ccccc1Cl : -0.465 (inactive)

Measured fluorescence slope of CC(OC(=O)C1CC=CCC1C(N)=O)C(Cl)=C(Cl)Cl (stereo not drawn) : -0.506 (inactive)

====

Examples of molecules with documented nuclei count follow.
Assay: endothelial E-selectin expression blockers – imaging, HUVEC, immunofluorescence, MLSMR starter and 10KST1 sets, primary screen (AID 487);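 for nuclei count: 100% = median nuclei count of all wells on the same plate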
Conditions: HUVEC TNFalpha-induced E-selectin immunofluorescence imaging, at 2 µM; measured here: cell number, toxicity
Return type: number; implicit unit %.

[[record]]
compound_structure = "Cc1nnc(SCC(=O)N(C(C)C)C(C)C)nc1C"
observed_measurement = 115


Measured nuclei count of COc1ccc(CNc2oc(-c3ccccc3)nc2C#N)cc1 : 67.2

Measured nuclei count of Cc1onc(-c2ccccc2Cl)c1C(=O)N1CCc2ccccc21 : 110

====

Assay: blockers of RIG-like receptor reporter activation – cell-based, Sendai virus stimulus, luciferase, 10K MLSCN set, TLR/RLR signaling modifier project, primary screen (AID 602276);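 note: firefly luciferase from ISG56 promoter only with Renilla not read in this screen; 0% = Sendai virus plus DMSO and 100% = medium plus DMSO without virus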
Conditions: HEK293 RL24 IRF3 luciferase reporter, at 10 µM, stronger effect = higher value
Examples of molecules with documented inhibition follow.
Return type: number; implicit unit %.

Measured inhibition of CCC(=O)N1Cc2ccccc2-c2ccccc2C1=O : 12.1

Measured inhibition of O=C1CN(Cc2ccccc2)C(=NCc2ccco2)S1 : 8.96

Measured inhibition of CCc1nnc2c3cnn(-c4ccccc4)c3ncn12 : -19

Measured inhibition of CCC(CO)Nc1ncnc2c1cnn2-c1ccc(Cl)cc1 (stereo not drawn) : 38.4

====

Experiment: endothelial E-selectin expression blockers – imaging, HUVEC, immunofluorescence, MLSMR starter and 10KST1 sets, primary screen (AID 487);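 for inhibition: signal is fraction of cell area covered by stained E-selectin grains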
Settings: HUVEC TNFalpha-induced E-selectin immunofluorescence imaging, at 2 µM; stronger effect = higher value
Label y when inhibition >= -40%; otherwise n.

[[record]]
compound = "CCSCCNC(=O)c1cc(-n2cnnc2)ccc1Cl"
label = "y"

[[record]]
compound = "Cc1ccc(NCC(O)C(O)C(O)CO)cc1C (stereo not drawn)"
label = "n"

[[record]]
compound = "CN=C(Nc1ccc2c(c1)OCO2)SC1CC(=O)N(c2ccccc2)C1=O (stereo not drawn)"
label = "y"

[[record]]
compound = "O=C(CSc1ncnc2c1cnn2-c1ccccc1)Nc1ccccc1"
label = "n"


Query :: Given O=C(CCCCn1c(=O)c2ccccc2n(Cc2ccc(Cl)cc2)c1=O)NCc1ccco1 , state whether its inhibition is at least -40%.
Result :: n

====

Examples of compounds with documented inhibition follow.
Experiment: blockers of RIG-like receptor reporter activation – cell-based, Sendai virus stimulus, luciferase, 10K MLSCN set, TLR/RLR signaling modifier project, primary screen (AID 602276);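 note: firefly luciferase from ISG56 promoter only with Renilla not read in this screen; 0% = Sendai virus plus DMSO and 100% = medium plus DMSO without virus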
Conditions: HEK293 RL24 IRF3 luciferase reporter, at 10 µM, stronger effect = higher value
Where a SMILES comes first, the peptide text is derived from it. [ ]: non-standard residue; d: D form. The star is where a group is joined. ξ: configuration not given here. Cbz = O=C(OCc1ccccc1)*; ξK = NCCCCC(N)C(=O)O
Return type: number; implicit unit %.

In the examples that follow, each entry is paired with its recorded inhibition.
[[record]]
compound = "CC(Sc1nc(-c2ccccc2)cc(C(F)(F)F)n1)C(=O)N1CCC(C(N)=O)CC1 (configuration not stated)"
scale_unit = "%"
observed_measurement = 17.5

[[record]]
compound = "O=C(NC1CCCCC1)n1c(=O)oc2ccc(Cl)cc21"
scale_unit = "%"
observed_measurement = -1.88

[[record]]
compound = "COC(=O)C(CCCCNC(=O)OCc1ccccc1)NC(=O)CN (configuration not stated) (H-Gly-[ξK](Cbz)-OMe)"
scale_unit = "%"
observed_measurement = 4.8

[[record]]
compound = "Cn1c(=O)c2c(nc(NCc3ccccc3)n2CCCc2ccccc2)n(C)c1=O"
scale_unit = "%"
observed_measurement = 16.3

[[record]]
compound = "CC1CCCc2sc3nc(NCc4ccco4)n4ncnc4c3c21 (configuration not stated)"
scale_unit = "%"
observed_measurement = 2.57

[[record]]
compound = "Cc1ccc(S(=O)(=O)N2CCOCC2)cc1C(=O)Nc1nc(-c2cccnc2)cs1"
scale_unit = "%"
observed_measurement = 7.72


Measured inhibition of Cc1ccc(C(=O)CC2(O)C(=O)N(CN3CCOCC3)c3ccccc32)cc1 (configuration not stated) : -4.62

Measured inhibition of CC(C)CCNC(=O)C1CCN(C(=O)N(C)C)CC1 : 8.09

Measured inhibition of O=C(NCc1ccco1)c1csc(Nc2ccccc2Cl)n1 : -50.5

Measured inhibition of CCOC(=O)CSc1nnc(-c2ccccc2OC)o1 : -10.7

Measured inhibition of COc1ccccc1N(CC(=O)Nc1cccnc1)S(C)(=O)=O : 7.85

Measured inhibition of Cn1c(=O)cc(NCCc2ccccc2)[nH]c1=O : 7.54

Measured inhibition of c1ccc2c(c1)CNc1ccccc1C2 : 7.99

Measured inhibition of CCOC(=O)c1cccc(NC2c3ccccc3C(=O)N2Cc2ccco2)c1 (configuration not stated) : 6.59

Measured inhibition of C=CCN1C(=O)C2(C(C#N)=C(N)Oc3n[nH]c(CCC)c32)c2ccccc21 (configuration not stated) : 11.3

Measured inhibition of CC1CCc2nn(CC(=O)NCCCN3CCOCC3)cc2C1 (configuration not stated) : 8.95

Measured inhibition of COc1ccc(CC(NC(C)=O)C(=O)N2CCN(C(=O)N(C(C)C)C(C)C)CC2)cc1 (configuration not stated) : 4.31

Measured inhibition of COc1ccccc1C(=O)NCCNC(=O)c1ccco1 : -4.73

Measured inhibition of CC(C)CC1NC(=O)N(CC(=O)N2CCN(S(=O)(=O)c3ccc(Cl)cc3)CC2)C1=O (configuration not stated) : 15.2
